TARGET ENTITY: Thyroid hormone receptor beta (Homo sapiens)
PROTOCOL SUMMARY: qHTS assay for small molecule antagonists of thyroid hormone receptor beta signaling (AID 588547);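 also: cells stimulated with 0.4 nM T3 agonist during compound exposure; series mostly up to about 77 µM; % is scaled to controls: 0 for no effect and ±100 for the full control effect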
PROTOCOL CONDITIONS: TR-UAS-bla HEK293, beta-lactamase ratio, antagonist mode, 18 h
Results filed as inconclusive are left out.
For each entry below, report its activity change % (negative = inhibition) value.
Respond numerically; units are % and should not be typed.

Exam item: Entry "c1cc[n+]2c(c1)-c1cccc[n+]1CC2" has what activity change % (negative = inhibition)?
Marked response: 10.8

Exam item: // next record "CNC(=O)/C=C(\C)OP(=O)(OC)OC"
Marked response: -12.7

Exam item: Next: "COP(=S)(OC)Oc1c(Cl)cc(C)cc1Cl"
Marked response: 7.32

Exam item: Same lookup for "CCC(C)(c1ccc(O)cc1)c1ccc(O)cc1" , please.
Marked response: 5.47

Exam item: How about "CCSCCSP(=O)(OC)OC" ?
Marked response: 4.21

Exam item: What about this compound? "CCCOc1nn(C(=O)NS(=O)(=O)c2ccccc2C(=O)OC)c(=O)n1C"
Marked response: 10.6

Exam item: Same again, this time with "CCCCOC(=O)[C@@H](C)Oc1ccc(Oc2ccc(C#N)cc2F)cc1"
Marked response: 0.16

Exam item: Thanks! And "C/C(=N\C(N)=O)N(C)Cc1ccc(Cl)nc1" ?
Marked response: -10.7

Exam item: Same for "O=[N+]([O-])Nc1nccn1Cc1ccc(Cl)nc1"
Marked response: -3.59

Exam item: Another compound: "Cc1cc(Cl)ccc1O[C@H](C)C(=O)O"
Marked response: 17.7

Exam item: And the next one, Clc1ccc(C2(Cn3cncn3)CC(Br)CO2)c(Cl)c1 (stereo not drawn) ?
Marked response: -0.525

Exam item: Try this compound next: CCOP(=S)(OCC)OC(Cl)C(Cl)(Cl)Cl (stereo not drawn)
Marked response: 7.52

Exam item: Can you handle "C#CCO" next?
Marked response: -4.81
